- SYSTEM: RORγ ligand binding domain (LBD) (Homo sapiens, UniProt P51449)
- Construct: made in house; host or cells: E. coli BL-21 (BL3), vector pDEST15
- Sequence (P51449 269-508 limits assumed): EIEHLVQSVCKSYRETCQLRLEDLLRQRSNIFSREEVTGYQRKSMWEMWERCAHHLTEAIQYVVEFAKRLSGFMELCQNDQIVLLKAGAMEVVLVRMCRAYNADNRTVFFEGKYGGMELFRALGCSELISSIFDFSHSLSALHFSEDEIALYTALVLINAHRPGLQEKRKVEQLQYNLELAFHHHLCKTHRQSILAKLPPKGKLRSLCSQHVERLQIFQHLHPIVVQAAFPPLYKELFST
- METHOD: TR-FRET Activity Assay (ligand sensing, RORγ-LBD / coactivator peptide interaction, LANCE)
- Format: biochemical
- RUN PARAMETERS: first value of the cell FRET/FF/REN; TR-FRET activity assay; read-out: pIC50 (FRET) (converted)
MEASURED ENDPOINT: IC50

| COMPOUND | MEASURED ENDPOINT | ENDPOINT VALUE |
| --- | --- | --- |
| Cc1c(C(=O)NCC2CC(C(=O)O)C2)cc(-c2cc(C(C)(C)O)cc(C3(C)CC3)c2)n1CC1CCCCC1 (stereo not drawn) | IC50 | 3980 nM |
| Cc1c(C(=O)NCC2(C(N)=O)CCOCC2)cc(-c2cc(C(C)(C)O)cc(C3(C)CC3)c2)n1CC1CCCCC1 | IC50 | 2000 nM |
| Cc1c(C(=O)NC2CCOCC2)cc(-c2cc(Cl)c(S(=O)(=O)NC(C)(C)C)c(C(F)(F)F)c2)n1CC1CCCCC1 | IC50 | 501 nM |
| Cc1c(C(=O)N[C@H]2C[C@H](C(=O)O)C2)cc(-c2ccc(S(=O)(=O)NC(C)(C)C)c(OC(F)(F)F)c2)n1CC1CCCCC1 | IC50 | 200 nM |
| Cc1c(C(=O)NC2COC2)cc(-c2cc(C(C)(C)C)cc(C(C)(C)C)c2)n1S(=O)(=O)N1CC(C)CC(C)C1 (stereo not drawn) | IC50 | 251 nM |
| Cc1c(C(=O)NC2COC2)cc(-c2cc(C(C)C)c3c(c2)C(C)(C)N(C(C)C)S3(=O)=O)n1CC1CCCCC1 | IC50 | 1000 nM |
| CC(C)(C)NS(=O)(=O)c1ccc(-c2cc(C(=O)NC3CCOCC3)c(Cl)n2CC2CCCCC2)cc1C(C)(C)C | IC50 | 501 nM |
| Cc1c(C(=O)NCC(C)(C)O)cc(-c2cccc3c(S(=O)(=O)NC(C)(C)C)cccc23)n1CC1CCCCC1 | IC50 | 2000 nM |
| Cc1c(S(=O)(=O)NC(C)(C)C)ccc(-c2cc(C(=O)NCC3(O)CCS(=O)(=O)CC3)c(C)n2CC2CCCCC2)c1Cl | IC50 | 631 nM |
